Organism: Homo sapiens
Protocol Details: Selectivity ratio of IC50 for human recombinant eNOS to IC50 for human recombinant nNOS
Outcome Measure: Ratio IC50

[1] N=C(Nc1ccc2c(c1)N(C1CCOCC1)CC2)c1cccs1
[2] N=C(Nc1ccc2c(c1)N(CCN1CC[C@@H](O)C1)CC2)c1cccs1
[3] N=C(Nc1ccc2c(c1)N(C1CCSCC1)CC2)c1cccs1
# descending Ratio IC50 order for the listed compounds Arrange the labels as the request states and list them. 2, 1, 3
(2: 71, 1: 26, 3: 10)

---

System: Nitric oxide synthase, inducible (Homo sapiens, UniProt P35228)
Sequence (P35228 whole entry): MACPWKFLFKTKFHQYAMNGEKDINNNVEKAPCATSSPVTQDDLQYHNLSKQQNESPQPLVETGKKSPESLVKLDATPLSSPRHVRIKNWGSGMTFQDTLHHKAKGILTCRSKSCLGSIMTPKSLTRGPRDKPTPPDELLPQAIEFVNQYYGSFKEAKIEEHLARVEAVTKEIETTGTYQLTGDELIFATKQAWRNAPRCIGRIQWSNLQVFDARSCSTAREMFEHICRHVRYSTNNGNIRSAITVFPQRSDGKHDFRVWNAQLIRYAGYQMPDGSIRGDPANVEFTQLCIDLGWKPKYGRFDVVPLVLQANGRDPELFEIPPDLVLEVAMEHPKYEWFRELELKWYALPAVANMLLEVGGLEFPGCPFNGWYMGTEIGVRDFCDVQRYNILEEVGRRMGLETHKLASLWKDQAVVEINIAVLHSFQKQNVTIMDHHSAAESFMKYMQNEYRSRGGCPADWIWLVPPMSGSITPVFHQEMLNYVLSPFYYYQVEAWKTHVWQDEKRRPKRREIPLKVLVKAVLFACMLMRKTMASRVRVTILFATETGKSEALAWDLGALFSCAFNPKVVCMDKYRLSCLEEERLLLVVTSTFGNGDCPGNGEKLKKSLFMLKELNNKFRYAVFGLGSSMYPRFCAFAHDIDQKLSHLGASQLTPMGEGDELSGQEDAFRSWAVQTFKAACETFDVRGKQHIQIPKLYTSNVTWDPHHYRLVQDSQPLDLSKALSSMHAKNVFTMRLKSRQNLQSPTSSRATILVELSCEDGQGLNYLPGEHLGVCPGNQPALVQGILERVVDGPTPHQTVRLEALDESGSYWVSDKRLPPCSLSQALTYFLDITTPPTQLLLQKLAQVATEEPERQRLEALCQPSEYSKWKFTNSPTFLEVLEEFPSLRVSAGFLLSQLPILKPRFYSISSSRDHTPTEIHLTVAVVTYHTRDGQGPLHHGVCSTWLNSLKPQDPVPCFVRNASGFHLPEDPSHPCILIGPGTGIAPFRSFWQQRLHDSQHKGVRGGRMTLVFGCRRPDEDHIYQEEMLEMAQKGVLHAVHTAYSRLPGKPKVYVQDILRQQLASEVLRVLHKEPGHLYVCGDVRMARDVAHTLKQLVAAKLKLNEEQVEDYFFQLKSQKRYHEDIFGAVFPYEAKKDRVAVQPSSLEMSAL
Protocol Details: Inhibition of human recombinant iNOS expressed in baculovirus infected insect Sf9 cells assessed as conversion of [3H]L-arginine to [3H]L-citrulline incubated for 15 mins prior to substrate addition measured after 45 mins by liquid scintillation counting
Outcome Measure: IC50 (µM)

entry_smiles=NC(=Nc1ccc2c(c1)N(C1CCNCC1)CC2)c1cccs1 measure_unit=µM experimental_result=2.39
entry_smiles=CN[C@H]1CC[C@@H](N2CCc3cc(F)c(NC(=N)c4cccs4)cc32)CC1 measure_unit=µM experimental_result=897
entry_smiles=NC(=Nc1ccc2c(c1)N(C1CCSCC1)CC2)c1cccs1 measure_unit=µM experimental_result=1.12

[I] CN[C@H]1CC[C@H](N2CCc3ccc(NC(=N)c4cccs4)cc32)CC1
[II] CN[C@H]1CC[C@@H](N2CCc3ccc(NC(=N)c4cccs4)cc32)CC1
Of the two listed items, which has the higher IC50? First: I Second: II // output: label of the selected item I

Hey, just so you know, these numbers are from ChEMBL document CHEMBL1955837.
